target: HiSiaP (P-domain) (Haemophilus influenzae, UniProt P44542, S83R); conditions: read-out: affinity; 50 mM Tris, 50 mM NaCl, pH 8; one approximate value printed for all three mutants
pKd: −log10 of the molar value.
REPORTED_ENDPOINT: pKd

Problem: Can you share its pKd? I mean this compound: CC(=O)N[C@H]1[C@H]([C@H](O)[C@H](O)CO)OC(O)(C(=O)O)C[C@@H]1O (stereo partly shown)
Solution: ~7.30

Data origin, for the record: paper PMC9352664
